These data points were gathered from ChEMBL document CHEMBL1201862.

- Test system: NCI-H226
- assay-method-text: NCI tumour cell line growth inhibition, 48 h
The source made the active and inactive calls. Cut-off read from the data, not from the text of the source: active = GI50 up to about 1.1 µM and inactive = higher.
Outcome codes: active, inactive

{"compound": "CCOP(=O)(OCC)/C(C#N)=C/c1cccn1Cc1ccccc1", "measured-on": "NCI-H226", "label-class": "inactive"}
{"compound": "CCCCCCCCCCCCCC(=O)CSCCNC(=O)CCNC(=O)[C@@H](O)C(C)(C)COP(=O)(O)OP(=O)(O)OCC1OC(n2cnc3c(N)ncnc32)C(O)C1OP(=O)(O)O (stereo partly specified)", "measured-on": "NCI-H226", "label-class": "inactive"}
{"compound": "O=C(O)CCCCCCCCC(=O)O", "measured-on": "NCI-H226", "label-class": "inactive"}
{"compound": "CCOC(=O)C(CC#Cc1ccc(C#CCC(NC(C)=O)C(=O)OCC)cc1)NC(C)=O (stereo unspecified)", "measured-on": "NCI-H226", "label-class": "inactive"}
{"compound": "c1ccc2sc(SSSc3nc4ccccc4s3)nc2c1", "measured-on": "NCI-H226", "label-class": "inactive"}
{"compound": "O=C(c1cc(O)ccc1O)c1ccccc1C(Cl)(Cl)Cl", "measured-on": "NCI-H226", "label-class": "inactive"}
{"compound": "Cc1ccc2c(C3Cc4ccccc4N3C(=O)/C=C\\C(=O)O)c(C)[nH]c2c1 (stereo unspecified)", "measured-on": "NCI-H226", "label-class": "inactive"}
{"compound": "CC(=O)/C(C)=N/NC(=O)c1ccccc1O", "measured-on": "NCI-H226", "label-class": "inactive"}
{"compound": "O=[N+]([O-])c1cccc2nc3ccccc3c(NCCC[N+]3([O-])CCCCC3)c12", "measured-on": "NCI-H226", "label-class": "active"}
{"compound": "NCCNc1nc(N2CCCC2)c2nc(Cl)c(NCc3ccccc3)nc2n1", "measured-on": "NCI-H226", "label-class": "inactive"}
{"compound": "CC1CC(Nc2ccc(Br)cc2)N(C(=O)c2ccc(Br)cc2)O1 (stereo unspecified)", "measured-on": "NCI-H226", "label-class": "inactive"}
{"compound": "CCOc1cc(C2CC(c3ccc(NS(=O)(=O)c4cc([N+](=O)[O-])ccc4C)cc3)=NN2S(=O)(=O)c2cc([N+](=O)[O-])ccc2C)ccc1O (stereo unspecified)", "measured-on": "NCI-H226", "label-class": "inactive"}
{"compound": "COC(=O)c1sc2nc(Nc3ccccc3)/c(=N\\c3ccccc3)sc2c1C", "measured-on": "NCI-H226", "label-class": "inactive"}
{"compound": "Cc1ccc(N2C(=O)CC(=O)N(NC(=O)C(C)Oc3ccccc3C)C2=S)cc1 (stereo unspecified)", "measured-on": "NCI-H226", "label-class": "inactive"}
{"compound": "O=C(NC(Cc1c[nH]cn1)C(=O)N1CCCC1)C1CCCC1 (stereo unspecified)", "measured-on": "NCI-H226", "label-class": "inactive"}
{"compound": "N#Cc1nc(CCc2nc(C#N)c(N)o2)oc1N", "measured-on": "NCI-H226", "label-class": "inactive"}
{"compound": "CCOc1ccc2c(c1)c(=O)c1c(NCCN(CC)CC)ccc3nnn2c31", "measured-on": "NCI-H226", "label-class": "inactive"}
{"compound": "COc1ccc2[nH]c3c(C)c4ccnc(NCCCN(C)CCCN)c4c(C)c3c2c1", "measured-on": "NCI-H226", "label-class": "active"}
{"compound": "COc1ccc(N(C(=O)NCCO)c2ccccc2)cc1", "measured-on": "NCI-H226", "label-class": "inactive"}
{"compound": "O=C1C2Nc3ccccc3SC2C(=O)N1c1ccc(Br)cc1 (stereo unspecified)", "measured-on": "NCI-H226", "label-class": "inactive"}
{"compound": "COc1cc(C2C(C(=O)Nc3cc(F)c(F)cc3F)=C(C)NC(C)=C2C(=O)Nc2cc(F)c(F)cc2F)ccc1O", "measured-on": "NCI-H226", "label-class": "inactive"}
{"compound": "O=C1N2CCN=C2c2ccccc2C1(O)c1ccccc1 (stereo unspecified)", "measured-on": "NCI-H226", "label-class": "inactive"}
{"compound": "CC(C)(C)C(=O)C(c1ccc(-c2cscn2)cc1)c1ccc(-c2cscn2)cc1", "measured-on": "NCI-H226", "label-class": "inactive"}
{"compound": "C[C@]12CC[C@H](O)CC1=CC[C@@H]1[C@@H]2CC[C@]2(C)/C(=N/OCCN3CCCC3)CC[C@@H]12", "measured-on": "NCI-H226", "label-class": "inactive"}
{"compound": "COc1cc(/C=C\\c2ccncc2)cc(OC)c1OC", "measured-on": "NCI-H226", "label-class": "inactive"}
{"compound": "c1ccc(CN2COc3c(ccc4c5c(ccc34)CN(Cc3ccccc3)CO5)C2)cc1", "measured-on": "NCI-H226", "label-class": "inactive"}
{"compound": "CC(O)CNC(=O)Nc1c(C(F)(F)F)cc(-c2ccccc2)[nH]c1=O (stereo unspecified)", "measured-on": "NCI-H226", "label-class": "inactive"}
{"compound": "CCOC(=O)NC(=O)c1cn(C2CCCCC2)c(=O)[nH]c1=O", "measured-on": "NCI-H226", "label-class": "inactive"}
{"compound": "COc1ccc(/C=N/n2c(-c3ccccc3)n[nH]c2=O)cc1", "measured-on": "NCI-H226", "label-class": "inactive"}
{"compound": "COc1ccc2c(c1)c(=O)c1c(NCCNCCO)ccc3c(=O)n(CCN(C)C)c(=O)n2c31", "measured-on": "NCI-H226", "label-class": "active"}
{"compound": "CC1(C)CCCC2OC2CCC(C)(C)C1=O (stereo unspecified)", "measured-on": "NCI-H226", "label-class": "inactive"}
{"compound": "O=C(Nc1nc2ccc([N+](=O)[O-])cc2s1)C(=O)C(C1OC(=O)c2ccccc21)[N+](=O)[O-] (stereo unspecified)", "measured-on": "NCI-H226", "label-class": "inactive"}
{"compound": "Oc1cc(Br)cc2cc(Br)cnc12", "measured-on": "NCI-H226", "label-class": "inactive"}
{"compound": "O=c1c2c3c(sc2nc2n1N=CN(c1ccc(Cl)cc1)C2)CCCC3", "measured-on": "NCI-H226", "label-class": "inactive"}
{"compound": "COc1cc(OC)c2[nH]c3c(O)c(-c4c(C)cc5c([nH]c6c(OC)cc(OC)cc65)c4O)c(C)cc3c2c1", "measured-on": "NCI-H226", "label-class": "inactive"}
{"compound": "O=C1c2ccc3c4ccc5c6c(ccc(c7ccc(c2c37)C(=O)N1CCN1CCCCC1)c64)C(=O)N(CCN1CCCCC1)C5=O", "measured-on": "NCI-H226", "label-class": "inactive"}
{"compound": "c1ccc(CCCN2C3CCC2CN(CCOC(c2ccccc2)c2ccccc2)C3)cc1", "measured-on": "NCI-H226", "label-class": "inactive"}
{"compound": "CC1CC(=O)Nc2ccc(Cl)cc2N1C(=O)CN1CCC(CCCCN(C)C)CC1 (stereo unspecified)", "measured-on": "NCI-H226", "label-class": "inactive"}
{"compound": "COc1ccc(C2ON(c3ccccc3)CC=C2C)cc1 (stereo unspecified)", "measured-on": "NCI-H226", "label-class": "inactive"}
{"compound": "COc1ccc(CNc2nc(NC3CCCCC3)nc(NC3CCCCC3)n2)cc1", "measured-on": "NCI-H226", "label-class": "inactive"}
{"compound": "O=C(O)c1ccc(Nc2nc3cc(C(F)(F)F)ccc3nc2-c2ccccc2)cc1", "measured-on": "NCI-H226", "label-class": "inactive"}

* * *

- Tested on: SNB-78
- assay-method-text: NCI tumour cell line growth inhibition, 48 h
Calls of active or inactive are those of the source. Rule as the data show it: active = GI50 up to about 1.1 µM and inactive = higher.

{"compound": "Cn1c2ccccc2c2ccc3c(c21)C(=O)C=CC3=O", "GI50": "21.1 µM (inactive)"}
{"compound": "Brc1ccc(C2CC(c3cccc4ccccc34)=Nc3ccccc3S2)cc1 (stereo unspecified)", "GI50": "82 µM (inactive)"}
{"compound": "COC(=O)C1CC(OC(C)=O)C=C2C(=O)CCC21 (stereo unspecified)", "GI50": "24.1 µM (inactive)"}
{"compound": "CCC(=O)N1C(=O)OCC1C(C)C (stereo unspecified)", "GI50": "> 100 µM (inactive)"}
{"compound": "Nc1ncnc2c1ncn2C1(CO)OC(CO)C(O)C1O (stereo unspecified)", "GI50": "> 100 µM (inactive)"}
{"compound": "COc1cccc2c1C(CO)N1C(C#N)C3CC(C(=O)O)C(C1C2)N3C (stereo unspecified)", "GI50": "2.81 µM (inactive)"}
{"compound": "COc1ccc(-c2nnc3c4ccccc4sn23)cc1", "GI50": "41.9 µM (inactive)"}
{"compound": "Cc1ccc(NC(=O)c2cccc([N+](=O)[O-])c2O)c([N+](=O)[O-])c1", "GI50": "19.4 µM (inactive)"}
{"compound": "OCC(O)C(O)C(O)c1nn(-c2ccc(Cl)cc2)c2nc3cc(Cl)c(Cl)cc3nc12 (stereo unspecified)", "GI50": "20.7 µM (inactive)"}
{"compound": "NC(CCSCC(F)F)C(=O)O (stereo unspecified)", "GI50": "> 100 µM (inactive)"}
{"compound": "c1ccc(CN2COc3c(ccc4c5c(ccc34)CN(Cc3ccccc3)CO5)C2)cc1", "GI50": "> 100 µM (inactive)"}
